# Tested on: MDA-MB-468 breast
# test_summary: NCI-60 one-dose screen, 48 h (100 = growth as untreated, 0 = no growth, -100 = all killed)
# conditions_used: 10 µM unless noted
The panel holds about 83,000 compounds, 20% with a hit somewhere; the sample as a whole holds those more often.
Measured growth by item
property_measured: growth (%)

molecule	experimental_value
Fc1ccc(C2CC(c3cccc(Nc4ccncc4)c3)=NN2c2ccc(Cl)cc2)cc1 (stereo not given)	63.6
COc1ccc(-c2cc(-c3ccc(Cl)cc3)c(C#N)c(=O)n2Cc2ccc(C(=O)Nc3ccccc3N)cc2)cc1	63.8
Clc1ccc(N/N=C(\c2ccccc2)c2ccccn2)nc1	-24.9
Cc1ccc(S(=O)(=O)NCC[C@@H]2C[C@H]2c2cc3ccccc3s2)cc1	83.7
Nc1nc2c(ncn2C2OC3COP(=O)(O)OC4C(COP(=O)(O)OC2C3O)OC(n2cnc3c(N)ncnc32)C4O)c(=O)[nH]1 (stereo not given)	116
CC1(C)O[C@H]2OC3CCC(=O)CC3(O)[C@H]2O1 (stereo not given in full)	98.5
COc1ccc(-n2c(=S)sc3c(Cl)nc(C)nc32)c(OC)c1	-19.6
CC1=C2[C@@H](CC1)[C@]1(C)O[C@@](C(C)C)(C[C@H]1OC(=O)CO)[C@H]2OC(=O)CCCc1ccccc1	88.3
CC1=C(C)C(=O)C(Nc2ccccc2)=C(Cl)C1=O	-76
CCCCC1CCCCN1C(=O)OCC (stereo not given)	114
CCNc1nc(-c2ccc(Cl)c(OC)c2)c(-c2ccnc(NCCCNS(=O)(=O)c3ccc(Cl)cc3)n2)s1	63.3
C#CC(C(C)C)N(CCO)CCCC (stereo not given)	103
O=c1cc(-c2cccnc2)oc2c1ccc1ccccc12	65
CN1CCN(Cc2ccc(NC(=O)c3cncc(C#Cc4c(N)ncc5ccccc45)c3)cc2C(F)(F)F)CC1	-71.6
O=C(CCc1nnc(Cn2ccnc2)o1)c1nc2ccccc2[nH]1	108
CNC(=O)c1cn(C2CC2)c2cc(N3CCN(C(=O)c4cc(OC)c(OC)c(OC)c4)CC3)c(F)cc2c1=O	103
COc1cnc2c(c1)C(=O)c1c-2n(CCCNCCO)c(=O)c2ccncc12	-23.9
O=C(CCCCCNC(=O)c1cc(=O)c(O)co1)Nc1ccccc1	108
C=C1C(=O)O[C@H]2[C@H]1CC/C(COC(=O)Nc1nc3ccccc3[nH]1)=C\CC[C@@]1(C)O[C@@H]21	36.9
Cc1cc(O)cc(-c2c(-c3ccnc(-c4cccnc4)c3)cnn2C)c1	48.1

###

# Tested on: MDA-MB-468 breast
# test_summary: NCI-60 one-dose screen, 48 h
# conditions_used: 10 µM unless noted
The panel holds about 83,000 compounds, 20% with a hit somewhere; the sample as a whole holds those more often. Activity calls are given as the source filed them. How the source made its calls: active means growth percent below 10; inactive means the rest.
Outcomes: active, inactive

compound	cat
COc1ccc(/C(C#N)=C/c2ccccc2OC)cc1	active
COC1=CC(c2ccc[nH]2)=N/C1=C\c1[nH]c(C)c(C)c1CCC(=O)OCc1ccccc1	inactive
COc1ccc(-c2nn(-c3cccc(Cl)c3)cc2-c2c(C#N)c(=O)n3[nH]c(-c4ccc(C)cc4)nc3c2C#N)cc1	active
CN1CCN(Cc2ccc(/C=N/Nc3ccnc4cc(Cl)ccc34)cc2)CC1	inactive
C(=N\Nc1ccccn1)/c1ccccn1	active
CC(=O)Nc1ccc2oc(=O)ccc2c1	inactive
COc1ccc2c(c1)c(-c1nonc1-c1cn(C)c3ccc(OC)cc13)cn2C	inactive
COc1ccc(C(Cn2ccnc2)Sc2ccc(Cl)c(Cl)c2)cc1 (stereo unspecified)	inactive
N=c1c(S(=O)(=O)c2ccccc2)cc2c(=O)n3ccccc3nc2n1C1CCCC1	inactive
COc1cc2oc(-c3cccc(N)c3)cc(=O)c2c(OC)c1OC	inactive
Cc1ccc(-c2nc3c(c(-c4ccccc4)nn3-c3ccccc3)c(-c3ccc(O)cc3)c2C#N)cc1	inactive
COc1ccc2c(c1)c(-c1nc(-c3c[nH]c4ncccc34)cs1)cn2CCO	active
Clc1ccc(Nc2ncnc3c2sc2ncccc23)cc1	inactive
CC(=O)O[C@H]1CC2CCC3C(CC[C@@]4(C)C3C[C@H]([N+]3(C)CCCCC3)[C@@H]4OC(C)=O)[C@@]2(C)C[C@@H]1N1CCCCC1 (stereo partly specified)	inactive
O=C(Nc1cc(-c2ccccc2)[nH]n1)c1ccc(Cl)cc1	inactive
O=C(N/N=C(\CS(=O)(=O)c1ccccc1)c1cc2cc(Br)ccc2oc1=O)c1ccccc1	inactive
CCN(CC)c1ccc(/C=N/NC(=O)c2ccc(S(N)(=O)=O)cc2)cc1	active
CCNc1ncnc2c1cnn2C1CCCO1 (stereo unspecified)	inactive
C=C1C(=O)O[C@H]2[C@H]1CC/C(COC(=O)c1cc3ccccc3o1)=C\CC[C@@]1(C)O[C@@H]21	active
COC(=O)/C=C1/SC(=NCc2ccccc2)N(CCc2c[nH]c3ccccc23)C1=O	inactive
C[C@H]1c2ccccc2CN1CCCOc1cc2c(cc1OCC1CC1)C1(CCCC1)C(N)=N2	inactive

###

# Test system: MDA-MB-468 breast
# test_summary: NCI-60 one-dose screen, 48 h
# conditions_used: 10 µM unless noted
About 83,000 compounds went through this panel and 20% of them were active in at least one assay; those are over-represented in the sample as a whole. Activity calls are given as the source filed them. How the source made its calls: active means growth percent below 10; inactive means the rest.
Outcomes: active, inactive

molecule	cat
COC(=O)c1cccc(NC2=C(Cl)C(=O)c3nc(C)ccc3C2=O)c1	active
COc1ccc(/C=C\C(=O)/C=C/c2ccc(OC)cc2)cc1	inactive
CON1C(=O)CC[C@]2(C)[C@H]3CC[C@@H]4C([C@@]5(C)CCC(=O)O5)CC[C@@]4(C)[C@]3(C)CC[C@H]2C1(C)C (stereo not given in full)	inactive
Cc1cc2c(C)c3cc(C)c(N)cc3nc2cc1N	active
CCCCCCCCCCCCCCCCn1cc[n+](C)c1	active
Nc1ncc(-c2ccc3ncnc(N4CCc5ccc(Cl)cc54)c3c2)cc1C(F)(F)F	active
CC1(C)CC[C@]2(c3nnc(-c4ccncc4)o3)CC[C@H]3C(=CC[C@H]4[C@@]3(C)CC[C@H]3C(C)(C)C(=O)CC[C@]43C)[C@@H]2C1	inactive
CCC(/C=C\C(C)=O)CC	inactive
CCOc1ccc(NC2=C(Cl)C(=O)c3ccccc3C2=O)cc1	inactive
O=Cc1c[nH]c2ccc(NC(=O)OCc3ccccc3)cc12	inactive
CC(Br)C(O)c1cc2c(cc1Br)OCO2 (stereo not given)	inactive
COc1cnc2c(c1)C(=O)c1c-2n(CCCNC(C)C)c(=O)c2cc([N+](=O)[O-])ccc12	active
COc1cc(-c2nn(C(=O)NS(=O)(=O)c3ccccc3)cc2-c2ccncc2)ccc1Cl	inactive
CNS(=O)(=O)Nc1nccc(Cc2c(C)c3ccc(Oc4ncccn4)cc3oc2=O)c1F	inactive
COc1ccc(OC)c(/C=C2\Oc3cc(O)ccc3C2=O)c1	inactive
CC(C)(C)c1ccc(C2CC(=O)C3=C(C2)Nc2ccccc2N(C(=O)c2ccccc2Cl)C3c2ccc(F)cc2)cc1 (stereo not given)	active
Cn1nnnc1-c1ccc(N)cc1	inactive
C=C1CCC2C3(C)COC(C)(C)OC3CCC2(C)C1C/C=C1/C(=O)OCC1OC(C)=O (stereo not given)	active
COc1ccc(C/C(C)=C(/c2ccc(OCCN3CCCCC3)cc2)c2ccc(OC(=O)NCc3ccccc3)cc2)cc1	active
Cc1nc(N)nc(N[C@@H](C)c2nc3cccc(NCc4ccc(C(=O)NO)cc4)c3c(=O)n2-c2ccccc2)n1	active

###

Measured growth by item
# Test system: MDA-MB-468 breast
# test_summary: NCI-60 one-dose screen, 48 h (100 = growth as untreated, 0 = no growth, -100 = all killed)
# conditions_used: 10 µM unless noted
About 83,000 compounds went through this panel and 20% of them were active in at least one assay; those are over-represented in the sample as a whole.

molecule	growth, %
O=S(=O)(NCCCNc1nccc(-c2[nH]c(-c3ccccc3)nc2-c2ccc(F)c(O)c2)n1)c1cccc2ccccc12	48.8
Cc1cc(=O)oc2cc(OCc3nn4c(Nc5nc6ccccc6s5)c(-c5ccccc5)nc4s3)ccc12	89.9
Cn1ccnc1C(=O)/C=C/c1ccc(C(=O)Nc2ccc(F)cc2)cc1	14.9
COC(=O)C(CC=O)C(=O)C(=O)Nc1cccc(C(F)(F)F)c1 (stereo not given)	104
O=C(Nc1ccc2cc3ccc(NC(=O)NC4CCCCC4)cc3nc2c1)NC1CCCCC1	105
NS(=O)(=O)c1ccc(CCn2c(SCC(=O)N/N=C/c3cc4ccccc4[nH]3)nc3ccccc3c2=O)cc1	60.2
Cc1ccc(S(=O)(=O)N2CCc3ccc(O)c4c3C2Cc2ccc3c(c2-4)OCO3)cc1 (stereo not given)	1.75
COC(=O)C(OC(C)=O)C(OC(C)=O)c1ccc(OC)c(OC)c1 (stereo not given)	108
CN(CCCCN(C[C@H]1Cc2ncccc2CN1)[C@H]1CCCc2cccnc21)C1CCC(F)(F)CC1	95.3
COc1c2ccccc2c(OC)c2[nH]c(=O)ccc12	60.9
Cn1c(=O)c2c(c3ccccc31)OC(N)=C(C#N)C21C(=O)c2ccccc2C1=O	96.4
O=C(c1ccccc1)N(C(=S)NCCc1ccc(Cl)cc1)c1ccc(Cl)cc1	16.7
C(=C\c1nc2ccccc2[nH]1)/c1nc2ccccc2[nH]1	106
C[C@]12CCC3c4ccc(O)cc4C[C@@H](CCCCCCCCCS(=O)CCCC(F)(F)C(F)(F)F)C3C1CC[C@@H]2O (stereo not given in full)	88
N#CC1=C(N)OC2=C(C(=O)CCC2)C1c1ccco1 (stereo not given)	115
CCOC(=O)c1c(C)nc2c(c1N)/C(=C/c1cccs1)C(=O)N2Cc1ccccc1	47.6
COc1ccc(C/C(C)=C(/c2ccc(OCCN3CCCC3)cc2)c2ccc(OC(=O)NCc3ccccc3)cc2)cc1	78.9
N/C(=N\c1nc2ccccc2s1)NC(=O)Nc1cccc2ccccc12	3.96
O=C1NN(c2ccccc2)C(c2ccc3c(c2)OCO3)N2CCC[C@@H]12 (stereo not given in full)	121
O=C(Nc1ncc(Cc2cc(C(F)(F)F)ccc2Cl)s1)c1cccs1	-0.706

Data origin: PubChem BioAssay (NCI)
